measurement-target: Phosphatidylinositol 4,5-bisphosphate 3-kinase catalytic subunit delta isoform (Homo sapiens, UniProt O00329)
Sequence (O00329 whole entry, canonical isoform): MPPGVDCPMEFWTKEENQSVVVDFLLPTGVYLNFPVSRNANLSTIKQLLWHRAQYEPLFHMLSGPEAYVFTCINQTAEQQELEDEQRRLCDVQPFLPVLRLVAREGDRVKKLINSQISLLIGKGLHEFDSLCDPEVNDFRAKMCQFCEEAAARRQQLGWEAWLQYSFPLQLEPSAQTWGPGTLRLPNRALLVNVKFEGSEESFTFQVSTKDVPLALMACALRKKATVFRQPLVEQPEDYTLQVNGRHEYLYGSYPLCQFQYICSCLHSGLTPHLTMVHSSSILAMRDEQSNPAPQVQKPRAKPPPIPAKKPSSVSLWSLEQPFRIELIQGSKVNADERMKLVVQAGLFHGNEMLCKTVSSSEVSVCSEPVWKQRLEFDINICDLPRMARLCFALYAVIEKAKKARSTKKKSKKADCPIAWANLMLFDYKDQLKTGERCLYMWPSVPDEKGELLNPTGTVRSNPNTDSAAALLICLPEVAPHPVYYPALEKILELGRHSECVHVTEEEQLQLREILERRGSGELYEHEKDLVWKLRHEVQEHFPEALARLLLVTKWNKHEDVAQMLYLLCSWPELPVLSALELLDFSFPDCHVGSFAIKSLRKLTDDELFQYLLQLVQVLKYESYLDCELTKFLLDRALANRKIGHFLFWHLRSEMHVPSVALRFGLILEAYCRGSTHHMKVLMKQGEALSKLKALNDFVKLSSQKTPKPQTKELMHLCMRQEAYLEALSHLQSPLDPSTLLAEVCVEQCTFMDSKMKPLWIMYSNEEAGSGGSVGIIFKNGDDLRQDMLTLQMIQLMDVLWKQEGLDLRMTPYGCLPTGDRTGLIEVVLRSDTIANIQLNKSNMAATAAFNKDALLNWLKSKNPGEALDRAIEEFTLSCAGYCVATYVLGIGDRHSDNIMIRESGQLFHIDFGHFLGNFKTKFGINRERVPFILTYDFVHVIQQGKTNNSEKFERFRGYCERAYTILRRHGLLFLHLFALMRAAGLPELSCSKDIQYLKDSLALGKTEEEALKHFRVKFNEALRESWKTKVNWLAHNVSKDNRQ
run-description: Inhibition of PI3Kdelta in human Jeko B cells assessed as inhibition of Akt phosphorylation after 2 hrs
Type: cell-based
parameter-measured: IC50 (µM)

item_smiles=C[C@@H](Nc1cc(F)cc(F)c1)c1cc(C(=O)N(C)C)cc2c(=O)cc(N3CCOCC3)oc12 parameter_measured=IC50 measurement=0.017

---

Some compounds, each annotated with its measured pIC50.
measurement-target: Phosphatidylinositol 4,5-bisphosphate 3-kinase catalytic subunit beta isoform (Homo sapiens, UniProt P42338)
Sequence (P42338 whole entry, canonical isoform): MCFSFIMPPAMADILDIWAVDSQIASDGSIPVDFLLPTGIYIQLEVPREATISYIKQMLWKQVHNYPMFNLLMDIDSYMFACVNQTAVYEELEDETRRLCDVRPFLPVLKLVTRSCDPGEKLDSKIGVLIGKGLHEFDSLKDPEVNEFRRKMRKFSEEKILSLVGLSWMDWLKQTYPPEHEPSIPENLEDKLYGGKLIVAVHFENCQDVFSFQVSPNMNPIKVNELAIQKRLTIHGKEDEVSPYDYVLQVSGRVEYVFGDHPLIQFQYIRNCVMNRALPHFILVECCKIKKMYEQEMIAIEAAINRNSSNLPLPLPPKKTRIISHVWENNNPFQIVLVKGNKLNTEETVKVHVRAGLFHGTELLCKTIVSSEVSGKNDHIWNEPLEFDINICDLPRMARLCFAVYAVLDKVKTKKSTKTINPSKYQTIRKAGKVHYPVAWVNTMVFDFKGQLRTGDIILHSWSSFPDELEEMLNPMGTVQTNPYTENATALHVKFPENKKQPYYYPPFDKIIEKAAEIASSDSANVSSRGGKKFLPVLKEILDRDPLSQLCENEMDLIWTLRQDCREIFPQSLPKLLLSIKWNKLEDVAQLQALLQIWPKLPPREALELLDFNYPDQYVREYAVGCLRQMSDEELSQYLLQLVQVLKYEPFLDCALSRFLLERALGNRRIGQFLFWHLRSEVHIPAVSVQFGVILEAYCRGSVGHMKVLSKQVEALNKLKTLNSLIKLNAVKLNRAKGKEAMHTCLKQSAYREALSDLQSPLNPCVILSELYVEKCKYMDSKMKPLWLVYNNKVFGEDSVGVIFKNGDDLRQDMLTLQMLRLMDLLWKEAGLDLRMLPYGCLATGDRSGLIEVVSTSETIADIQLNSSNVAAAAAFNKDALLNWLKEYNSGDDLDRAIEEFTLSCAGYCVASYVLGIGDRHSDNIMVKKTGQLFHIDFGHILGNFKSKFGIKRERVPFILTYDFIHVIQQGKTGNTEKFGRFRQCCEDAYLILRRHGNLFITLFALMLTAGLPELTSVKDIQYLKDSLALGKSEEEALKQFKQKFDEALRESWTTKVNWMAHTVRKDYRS
run-description: Inhibition of human recombinant PI3Kbeta using PIP2 by Kinase-Glo Plus assay
pIC50: −log10 of the molar value.
parameter-measured: pIC50

compound=CNC(=O)c1cc([C@@H](C)Nc2cc(F)cc(F)c2)c2oc(N3CCOCC3)cc(=O)c2c1 measurement=8.22
compound="CCN(C)C(=O)c1cc(C(C)Nc2cc(F)cc(F)c2)c2oc(N3CCOCC3)cc(=O)c2c1 (racemic)" measurement=8.10
compound="Cc1cc(F)cc(NC(C)c2cc(C(=O)N(C)C)cc3c(=O)cc(N4CCOCC4)oc23)c1 (racemic)" measurement=7.82
compound="COc1cc(F)cc(NC(C)c2cc(C(=O)N(C)C)cc3c(=O)cc(N4CCOCC4)oc23)c1 (racemic)" measurement=8.00
compound="CC(Nc1cc(F)cc(F)c1)c1cc(C(=O)N(C)CCO)cc2c(=O)cc(N3CCOCC3)oc12 (racemic)" measurement=8.00
compound=C[C@@H](Oc1cc(F)cc(F)c1)c1cc(C(=O)N(C)C)cc2c(=O)cc(N3CCOCC3)oc12 measurement=7.77
compound="CC(Nc1cccc(F)c1F)c1cc(C(=O)N(C)C)cc2c(=O)cc(N3CCOCC3)oc12 (racemic)" measurement=7.89
compound=CN(C)C(=O)c1cc(CNc2cc(F)cc(F)c2)c2oc(N3CCOCC3)cc(=O)c2c1 measurement=8.10

---

Some compounds, each annotated with its measured Vd.
run-description: Volume of distribution in mouse at 5 umol/kg, iv administered as bolus dose in 20 to 30% DMA in PBS
Format: ADME, organism-based
condition-details: in vivo
parameter-measured: Vd

item_smiles=C[C@@H](Nc1cc(F)cc(F)c1)c1cc(C(=O)N(C)C)cc2c(=O)cc(N3CCOCC3)oc12 measurement="1.3 L/kg"
item_smiles=C[C@@H](Nc1ccc(F)c(F)c1)c1cc(C(=O)N(C)C)cc2c(=O)cc(N3CCOCC3)oc12 measurement="1.7 L/kg"
item_smiles=C[C@@H](Nc1cccc(Cl)c1F)c1cc(C(=O)N(C)C)cc2c(=O)cc(N3CCOCC3)oc12 measurement="1.7 L/kg"
item_smiles=C[C@@H](Nc1cc(F)cc(F)c1F)c1cc(C(=O)N(C)C)cc2c(=O)cc(N3CCOCC3)oc12 measurement="1.7 L/kg"
item_smiles=C[C@H]1CN(c2cc(=O)c3cc(C(=O)N(C)C)cc([C@@H](C)Nc4cc(F)cc(F)c4)c3o2)CCO1 measurement="2.2 L/kg"
item_smiles=C[C@H](c1cc(C(=O)N(C)C)cc2c(=O)cc(N3CCOCC3)oc12)N(C)c1cc(F)cc(F)c1 measurement="2 L/kg"
item_smiles=C[C@@H](Nc1cc(F)cc(Cl)c1)c1cc(C(=O)N(C)C)cc2c(=O)cc(N3CCOCC3)oc12 measurement="3.5 L/kg"

---

Some compounds, each annotated with its measured hepatocyte CLint.
run-description: Intrinsic clearance in cryopreserved human hepatocytes measured per 10^6 cells
Assay type: ADME, cell-based, Hepatocyte
condition-details: read-out: CLH
parameter-measured: hepatocyte CLint

compound="CC(Nc1cccc(Cl)c1)c1cc(C(=O)N(C)C)cc2c(=O)cc(N3CCOCC3)oc12 (racemic)" measurement="< 4 µL/min/1e6 cells"
compound="CC(Nc1cccc(F)c1F)c1cc(C(=O)N(C)C)cc2c(=O)cc(N3CCOCC3)oc12 (racemic)" measurement="< 3 µL/min/1e6 cells"
compound=C[C@@H](Nc1cc(F)cc(Cl)c1)c1cc(C(=O)N(C)C)cc2c(=O)cc(N3CCOCC3)oc12 measurement="12 µL/min/1e6 cells"
compound="COc1cc(F)cc(NC(C)c2cc(C(=O)N(C)C)cc3c(=O)cc(N4CCOCC4)oc23)c1 (racemic)" measurement="< 3 µL/min/1e6 cells"
compound=C[C@@H](Nc1ccc(F)c(F)c1)c1cc(C(=O)N(C)C)cc2c(=O)cc(N3CCOCC3)oc12 measurement="< 3 µL/min/1e6 cells"
compound="CC(Nc1cccc(F)c1)c1cc(C(=O)N(C)C)cc2c(=O)cc(N3CCOCC3)oc12 (racemic)" measurement="< 3 µL/min/1e6 cells"
compound="COCCNC(=O)c1cc(C(C)Nc2cc(F)cc(F)c2)c2oc(N3CCOCC3)cc(=O)c2c1 (racemic)" measurement="< 3 µL/min/1e6 cells"
compound=C[C@H](c1cc(C(=O)N(C)C)cc2c(=O)cc(N3CCOCC3)oc12)N(C)c1cc(F)cc(F)c1 measurement="< 4 µL/min/1e6 cells"
compound="CC(Nc1ccc(F)cc1)c1cc(C(=O)N(C)C)cc2c(=O)cc(N3CCOCC3)oc12 (racemic)" measurement="< 3 µL/min/1e6 cells"
compound="CC(Nc1cc(F)cc(F)c1)c1cc(C(=O)N(C)CCO)cc2c(=O)cc(N3CCOCC3)oc12 (racemic)" measurement="< 3 µL/min/1e6 cells"
compound="CCN(C)C(=O)c1cc(C(C)Nc2cc(F)cc(F)c2)c2oc(N3CCOCC3)cc(=O)c2c1 (racemic)" measurement="5 µL/min/1e6 cells"
compound=C[C@@H](Oc1cc(F)cc(F)c1)c1cc(C(=O)N(C)C)cc2c(=O)cc(N3CCOCC3)oc12 measurement="7 µL/min/1e6 cells"

---

run-description: Oral bioavailability in dog at 30 umol/kg administered as propylene glycol
Format: ADME, organism-based, Canis lupus familiaris
condition-details: in vivo
Some compounds, each annotated with its measured bioavailability.
parameter-measured: bioavailability

item_smiles=C[C@H]1CN(c2cc(=O)c3cc(C(=O)N(C)C)cc([C@@H](C)Nc4cc(F)cc(F)c4)c3o2)CCO1 measurement=5%
item_smiles=C[C@H](c1cc(C(=O)N(C)C)cc2c(=O)cc(N3CCOCC3)oc12)N(C)c1cc(F)cc(F)c1 measurement=31%
item_smiles=C[C@@H](Nc1cc(F)cc(F)c1F)c1cc(C(=O)N(C)C)cc2c(=O)cc(N3CCOCC3)oc12 measurement=47%
item_smiles=C[C@@H](Nc1cc(F)cc(F)c1)c1cc(C(=O)N(C)C)cc2c(=O)cc(N3CCOCC3)oc12 measurement=23%

---

run-description: Lipophilicity, log D of the compound at pH 7.4 by shake-flask method
Format: physicochemical
condition-details: buffer
parameter-measured: logD

compound="CC(Nc1cccc(F)c1F)c1cc(C(=O)N(C)C)cc2c(=O)cc(N3CCOCC3)oc12 (racemic)" measurement=1.9
compound=C[C@H](Nc1cc(F)cc(F)c1)c1cc(C(=O)N(C)C)cc2c(=O)cc(N3CCO[C@@H](C)C3)oc12 measurement=2.6
compound=C[C@@H](Nc1cc(F)cc(F)c1)c1cc(C(=O)N2CCC2)cc2c(=O)cc(N3CCOCC3)oc12 measurement=2.6
compound=CNC(=O)c1cc([C@@H](C)Nc2cc(F)cc(F)c2)c2oc(N3CCOCC3)cc(=O)c2c1 measurement=2.8

---

run-description: Lipophilicity, log D of the compound at pH 7.4 by shake-flask method
Format: physicochemical
condition-details: buffer
Lab note: anything with logD at or over 2 counts as rule met; the rest go in rule not met.

compound="CC(Nc1cc(F)cc(F)c1)c1cc(C(=O)N2CCOCC2)cc2c(=O)cc(N3CCOCC3)oc12 (racemic)" label_value="rule not met"
compound=C[C@@H](Nc1cc(F)cc(F)c1)c1cc(C(=O)N(C)C)cc2c(=O)cc(N3CCOCC3)oc12 label_value="rule met"
compound="COc1cc(F)cc(NC(C)c2cc(C(=O)N(C)C)cc3c(=O)cc(N4CCOCC4)oc23)c1 (racemic)" label_value="rule not met"
compound="CC(Nc1ccc(F)c(Cl)c1)c1cc(C(=O)N(C)C)cc2c(=O)cc(N3CCOCC3)oc12 (racemic)" label_value="rule met"
compound=C[C@H](c1cc(C(=O)N(C)CCO)cc2c(=O)cc(N3CCOCC3)oc12)N(C)c1cc(F)cc(F)c1 label_value="rule met"
compound="CC(Nc1cc(F)cc(F)c1)c1cc(C(=O)N2CCCC2)cc2c(=O)cc(N3CCOCC3)oc12 (racemic)" label_value="rule met"
compound=C[C@H]1CN(c2cc(=O)c3cc(C(=O)N(C)C)cc([C@@H](C)Nc4cc(F)cc(F)c4)c3o2)CCO1 label_value="rule met"
compound="COCCNC(=O)c1cc(C(C)Nc2cc(F)cc(F)c2)c2oc(N3CCOCC3)cc(=O)c2c1 (racemic)" label_value="rule met"
compound="CC(Nc1cccc(Cl)c1)c1cc(C(=O)N(C)C)cc2c(=O)cc(N3CCOCC3)oc12 (racemic)" label_value="rule met"
compound="COCCN(C)C(=O)c1cc(C(C)Nc2cc(F)cc(F)c2)c2oc(N3CCOCC3)cc(=O)c2c1 (racemic)" label_value="rule met"
